Consider the following compounds and their measured selectivity ratio readings.
Experiment Summary: Selectivity index, ratio of CC50 cytotoxicity against HEK293T cells to EC50 for antitrypanosomal activity against bloodstream form of wild type Trypanosoma brucei brucei S427 trypomastigotes
Format: toxicity, cell-based
Test Settings: human; read-out: Ratio CC50/EC50
Enter the number alone.

{"Input Smiles": "Cc1c(Cl)c(O)cc(O)c1C(=O)OCCCCCCCCCCCCCCBr", "Measurement Name": "selectivity ratio", "Reported Measurement": 8.2}
{"Input Smiles": "Cc1cc(O)cc(OCCCCCCCCCCCCCC[n+]2ccc(/C=C/c3cc4c5c(c3O)CCCN5CCC4)cc2)c1.[Br-]", "Measurement Name": "selectivity ratio", "Reported Measurement": 44.1}
{"Input Smiles": "Cc1cc[n+](CCCCCCCCCCCCCCOC(=O)c2c(C)cc(O)cc2O)cc1", "Measurement Name": "selectivity ratio", "Reported Measurement": 13.8}

Briefly, selectivity ratio measured for Cc1cc[n+](CCCCCCCCCCCCCCOC(=O)c2c(O)cc(O)c(Cl)c2C)cc1 : 182

Value of measured selectivity ratio for the entry Cc1cc[n+](CCCCCCCCCCCCCCOC(=O)c2c(C)c(Cl)c(O)c(Cl)c2O)cc1 : 1.7

Numbers sourced from ChEMBL document CHEMBL4837204.
